- System: TK-10 renal
Classes used: YES for active, NO for inactive

• CCC(CC(C)C)Nc1ccc(NC(CC)CC(C)C)cc1 (stereo not drawn) = NO
• O=C(Nc1cccc(-n2cc(-c3ccncc3)c(-c3ccc(O)c(Cl)c3)n2)c1)c1cccc(C(F)(F)F)c1 = NO
• O=C(NCCCCCCCNC(=O)OCc1ccc2c(Cl)cc(Cl)c(O)c2n1)OCc1ccc2c(Cl)cc(Cl)c(O)c2n1 = NO
• Nc1ccc2c(c1)c(N)nn2C(=O)Nc1ccc(Cc2ccccc2)cc1 = NO
• Oc1ccc(Cl)cc1Cc1cc(Cl)ccc1O = NO
• OCNCCNc1nc2ccccc2c2[nH]c3ccccc3c12 = NO
• CCOc1cc(-c2ccc[nH]2)[nH]c1/C=C1\N=C(C)C(C(=O)OC)=C1C = YES
• Oc1[nH]c2cc(Cl)ccc2c1/C=c1/ccc2c(c1)N=C(c1cc(F)cc(F)c1)N=2 = NO

// provenance: PubChem BioAssay (NCI)
